target-or-system: T1, His-tagged CEACAM1 (human, UniProt P13688 35-428)
T1 construct: 45 kDa SPR analyte; also called CEACAM1-HIS; CEACAM1 analyte
T1 sequence: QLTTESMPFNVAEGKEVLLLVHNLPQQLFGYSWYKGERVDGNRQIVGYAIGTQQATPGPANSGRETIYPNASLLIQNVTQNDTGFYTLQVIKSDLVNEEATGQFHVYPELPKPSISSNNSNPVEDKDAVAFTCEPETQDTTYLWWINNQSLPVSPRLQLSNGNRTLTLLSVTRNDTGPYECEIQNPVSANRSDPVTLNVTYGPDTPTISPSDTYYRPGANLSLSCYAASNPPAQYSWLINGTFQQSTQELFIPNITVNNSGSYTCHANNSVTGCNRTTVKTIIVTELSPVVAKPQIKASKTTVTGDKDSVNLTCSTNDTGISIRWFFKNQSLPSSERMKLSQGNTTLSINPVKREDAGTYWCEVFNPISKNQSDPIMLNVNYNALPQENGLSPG
protocol-notes: SPR multi-cycle, IgG captured
observed-property: kon (M⁻¹ s⁻¹)

VH1/Vκ2 (antibody, IgG4, V domains shown, IgG4 (S241P), kappa) VH: EVQLLESGGGLVQPGGSLRLSCAASGFIFSSHGMSWVRQAPGKGLEWVATISSGGTYTYYPDSVKGRFTISRDNSKNTLYLQMNSLKAEDTAMYYCARHDFDYDAAWFAYWGQGTLVTVSS VL: EIVLTQSPATLSLSPGERATLSCRANSSVSYMYWYQQKPGQAPRPWIYLTSNRATGVPARFSGSGSGTDYTLTISSLEPEDFATYYCQQWSSNPPTFGQGTKLEIK: 265000
VH1/Vκ8 (antibody, IgG4, V domains shown, IgG4 (S241P), kappa) VH: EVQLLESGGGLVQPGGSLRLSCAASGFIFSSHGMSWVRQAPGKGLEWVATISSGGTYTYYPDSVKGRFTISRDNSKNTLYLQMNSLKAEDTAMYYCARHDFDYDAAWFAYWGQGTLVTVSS VL: EIVLTQSPATLSLSPGERATLSCRANSSVSYMYWYQQKPGQAPRPWIYLTSNRATGVPARFSGSGSGTDYTLTISSLEPEDFAVYYCQQWSSNPPTFGQGTKLEIK: 430000
